Target: T1, recombinant Plasmodium falciparum circumsporozoite protein (CSP) (Plasmodium falciparum, UniProt Q7K740 21-375)
T1 construct: also called recombinant CSP
T1 sequence (Q7K740 21-375 limits assumed): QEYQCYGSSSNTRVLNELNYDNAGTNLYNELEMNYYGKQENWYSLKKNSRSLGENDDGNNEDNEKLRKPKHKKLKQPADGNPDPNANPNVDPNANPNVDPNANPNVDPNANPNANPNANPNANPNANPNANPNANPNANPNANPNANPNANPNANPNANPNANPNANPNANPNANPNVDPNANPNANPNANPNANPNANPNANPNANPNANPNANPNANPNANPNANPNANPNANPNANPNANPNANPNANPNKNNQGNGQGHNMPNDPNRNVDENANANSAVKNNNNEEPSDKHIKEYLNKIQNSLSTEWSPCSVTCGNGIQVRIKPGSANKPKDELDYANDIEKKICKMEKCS
Experiment: SPR, recombinant CSP
A collection of binders and their measured Kd
REPORTED PROPERTY: Kd (nM)

[[record]]
binder = "AB-000338 LS (antibody, V domains shown) VH: QVQLVESGGGVVQPGRSLRLSCAASGFSFSTYGMHWIRQVPGKGLEWVAIIWHDGSKEFYADSVKGRFTISRDNSKKKLYLQMNSLRAEDTAIYYCVKDDFDSSGHSYFHYWGQGTLVTVSS VL: GVVMTQSPLSLPVTLGQPASISCRSSQSLVHSDGNTYVHWFQQRPGQSPRRLIYKVSNRDSGVPDRFSGSGSGTDFTLKISRVEAEDVGVYYCMQGTQWWTFGQGTKVEIK"
measurement = 0.13

[[record]]
binder = "AB-000394 (antibody, V domains shown) VH: QAQPVESGGGVVQPGKSLRLSCAASGFTFRNFGMHWVRQAPGKGLEWVAVIWHDGSNQFYADSVEGRFTISRDNSKNTLYLQMDSLRVEDTAMYYCARDRGYSGSWGYFDHWGQGTLVTVSS VL: EIVLTQSPATLSLSPGERATLSCRASQSISDYLAWYQQKPGQAPRLLIYDASFRATGIPARFSGSGSGTDFTLTISSLEPEDFAVYYCQQRSIGFTFGPGTKVDIK"
measurement = 0.105

[[record]]
binder = "AB001558 (antibody, V domains shown) VH: QVQLVESGGGVVQPGRSLRLSCAASGFTFSSYGMHWVRQAPGKGLEWVAVIWYDGNNKYYVDSVKGRFTISRDNSKNTLYLQMNSLRAEDTAVYYCARDHDADYVEKWGAFDLWGQGTMVTVSS VL: EIVMTQSPATLSVSPGERATLSCRASQSVSSNLAWYQQKPGQAPRLLIYGASARATGIPARFSGSGSGTEFTLTISSLQSEDFAVYYCQQYNNGRTFGQGTKVEIT"
measurement = 40.2

[[record]]
binder = "AB-000325 (antibody, V domains shown) VH: QVQLVESGGGVVQPGRSLRLSCAASRFPFKNYGMHWVRQAPGKGLEWVALIWFDGSNKFYVDSVEGRFTISRDNSNNMLYLEMNSLRADDTAVYYCARAGRYDDSGYLDYWGQGTLVTVSS VL: EIVMTQSPATLSVSPGERATLSCRASQSVGSKLAWYQHKPGQAPRLLIYGASTRATGIPARFSGSGSGTEFTLTVSSLQSEDFAVYYCQQYNHWYTFGQGTKLEIK"
measurement = 0.0529

[[record]]
binder = "AB-000231 (antibody, V domains shown) VH: QVHLVESGGGVVQPGRSLRLSCAASGFTFRNYGIHWVRQAPGKGLEWVAVIWYDGSREFYADSVEGRFTVSRDNSKNTVFLQMNSLRVDDTAVYYCARAGYSDTSGYGDHWGQGTLVSVSS VL: QSVLTQPPSVSGAPGQRVTISCTGGSSNIGAGYDVHWYQQLPGTAPKLLISHNNNRPSGVPDRFSGSKSGTSASLVIAGLQAEDEADYYCQSYDRRLSSSWVFGGGTRLTVLS"
measurement = 0.328

[[record]]
binder = "AB001396 (antibody, V domains shown) VH: QVQLVESGGGVVQPGRSLRLSCAASGFTFSSYGMHWVRQAPGKGLEWVAIIWYDGSHKYYADSVKGRFTISRDNSKNTLYLQMNSLRAEDTAVYHCARVYQPTYYYDSSRGEAFDIWGQGTMVTVSS VL: DIQMTQSPSTLSASVGDRVTITCRASQSISSWLAWYQQKPGKAPKLLIYKASNLGSGVPSRFSGSGSGTEFTLTISSLQPDDFATYYCQQYNSYWTFGQGTKVEIK"
measurement = 1.47

[[record]]
binder = "AB001387 (antibody, V domains shown) VH: QVQLVESGGGVVQPGRSLRLSCAASGFTFSNYGMHWVRQAPGKGLEWVAVIWYDGSNKFYADSVKGRFTSSRDNSKNTLYLQMNSLRAEDTAVYYCARDGRFLTTVTTAYFDYWGQGTLVTVSS VL: QSVLTQPPSVSGAPGQRVTISCTGSSSNIGAGYDVHWYQQLPGTAPKLLIYGNSNRPSGVPDRFSGSKSGTSASLAITGLQAEDEADYYCQSYDSSLSALVFGGGTKLTVL"
measurement = 0.676

[[record]]
binder = "AB001529 (antibody, V domains shown) VH: QVQLVESGGGVVQPGRSLRLSCVASGFSFRSYGMHWVRQAPGKGLEWVAIIWYDGSNKYYAHSVKGRFTISRDNSKNTLYLQMNSLRAEDTAIYYCAKDGGTETTWGNAFDIWGQGTMVTVSS VL: DIQMTQSPSTLSASVGDRVTITCRASQSISSWLAWYQQKPGKAPKLLIYKASSLESGVPSRFSGSGSGTEFTLTINNLQPDDFATYYCQQYNSYWTFGQGTKVEIK"
measurement = 1.64

[[record]]
binder = "AB001533 (antibody, V domains shown) VH: QVQLVESGGGVVQPGRSLRLSCAASGFTFNSYGMHWVRQAPGKGLEWVALISFDGTNKFYADSVKGRFTISRDNSKNTLYLQMNSLRAEDTALYHCATDSLFYYDFHLFDYWGQGTLVTVSS VL: DIVLTQTPLSSPVTLGQPASISCRSSQSLVYSDGNTYLNWLQQRPGQPPRLLIYKISNRFSGVPDRFSGSGAGTDFTLKISRVEAEDVGVYYCMQATQLYTFGQGTKLEIK"
measurement = 0.248

[[record]]
binder = "AB001428 (antibody, V domains shown) VH: QVQLVESGGGVVQPGRSLRLSCVVSGFTFSSYGMHWVRQAPGKGLEWVAIIWYDGSKKYYADSVKGRFTISRDNSKNTLYLQMNSLRAEDTAVYYCARPGDSSGSHGEAFDIWGQGTMVTVSS VL: DIQMTQSPSTLSASVGDRVTITCRPSQSISNWLAWYQQKPGKAPKLLIYKASSLESGVPSRFSGSGSGTEFTLTISGLQPDDFATYYCQQYNTYWTFGQGTKVEIK"
measurement = 1.18


The origin of these recorded values is patent US20250296995A1.
